Where a name gives a salt, the structure may show the parent alone.
The listing below reports log10 Ki for compounds tested on UniProtKB P08173.
Sequence (P08173 whole entry): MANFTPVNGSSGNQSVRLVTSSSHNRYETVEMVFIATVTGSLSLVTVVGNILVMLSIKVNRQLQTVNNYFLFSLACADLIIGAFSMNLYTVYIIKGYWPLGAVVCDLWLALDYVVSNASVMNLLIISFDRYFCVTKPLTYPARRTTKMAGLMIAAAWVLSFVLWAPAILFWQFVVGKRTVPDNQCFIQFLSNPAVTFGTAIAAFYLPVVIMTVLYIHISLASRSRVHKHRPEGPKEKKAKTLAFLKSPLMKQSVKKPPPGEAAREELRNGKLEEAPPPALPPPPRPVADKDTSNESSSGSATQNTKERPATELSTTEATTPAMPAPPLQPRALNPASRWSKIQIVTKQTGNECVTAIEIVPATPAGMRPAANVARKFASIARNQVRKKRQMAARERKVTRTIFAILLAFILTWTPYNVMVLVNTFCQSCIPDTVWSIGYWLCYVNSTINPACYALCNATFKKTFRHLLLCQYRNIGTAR
Scale: decimal log of Ki, Ki in nM.

Fill in the blank: the reported log10 Ki of `Cc1c(P(=S)(c2ccccc2)c2ccccc2)n2ccccc2[n+]1C/C=C/c1ccccc1` is ____. 2.93

Same question, CN1CCC(=C2c3ccccc3CC(=O)c3sccc32)CC1 [KETOTIFEN FUMARATE] this time 2.96

Same question, Clc1ccc(CCCOCCCN2CCCCC2)cc1 [PITOLISANT HYDROCHLORIDE] this time 2.95

Same question, CCOC(=O)c1c(C)[nH]c2ccc3c(c12)CN1CCc2cc(OC)ccc2C1O3 (stereo not drawn) this time 1.67

Same question, C[N+]1(C)[C@@H]2C[C@@H](OC(=O)C(O)(c3cccs3)c3cccs3)C[C@H]1[C@@H]1O[C@@H]12 [TIOTROPIUM BROMIDE] this time -0.22

Same question, CN(C)C(=O)N[C@H]1CC[C@H](CCN2CCN(c3cccc(Cl)c3Cl)CC2)CC1 [CARIPRAZINE HYDROCHLORIDE] this time 2.89

Same question, `COc1cc(-n2cnc3cc(-c4ccc(Cl)cc4)sc3c2=O)ccc1OCCN1CCCC1` this time 3.23

---

systemName: Alpha-2C adrenergic receptor (Homo sapiens, UniProt P18825)
Sequence (P18825 whole entry): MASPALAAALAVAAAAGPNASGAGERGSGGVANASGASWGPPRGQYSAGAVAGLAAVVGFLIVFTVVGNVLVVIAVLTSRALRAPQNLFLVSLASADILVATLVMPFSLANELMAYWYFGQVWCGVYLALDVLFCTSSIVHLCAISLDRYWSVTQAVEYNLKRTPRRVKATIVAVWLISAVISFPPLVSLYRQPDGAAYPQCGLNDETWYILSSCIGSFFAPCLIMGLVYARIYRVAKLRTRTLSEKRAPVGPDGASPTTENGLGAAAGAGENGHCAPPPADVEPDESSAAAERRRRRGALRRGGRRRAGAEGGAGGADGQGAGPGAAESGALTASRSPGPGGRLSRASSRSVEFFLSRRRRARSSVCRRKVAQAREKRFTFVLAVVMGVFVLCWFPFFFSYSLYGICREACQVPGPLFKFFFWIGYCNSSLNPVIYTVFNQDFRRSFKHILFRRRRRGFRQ
testName: PDSP Secondary Binding target: ADRA2C - Compounds are tested at 10 uM concentration, plate are incubated at room temperature in the dark for 90 minutes. Reaction are stopped by vacuum filtration onto 0.3% polyethyleneimine soaked filter mats using Filtermate harvester. Scintillation cocktail is then melted onto microwave-dried filters on a hot plate and the radio activity is counted in Microbia counter.
Where a name gives a salt, the structure may show the parent alone.
For each of the compounds below, state its log10 of Ki.
Scale: decimal log of Ki, Ki in nM.

Fill in the blank: the reported log10 of Ki of `Cc1cc(C)cc(-c2cnc3cc(Cl)c(-c4cccc(O)c4)cc3c2OCCCN)c1` is ____. 2.93

Same question, N#Cc1ccc2[nH]cc(CCCCN3CCN(c4ccc5oc(C(N)=O)cc5c4)CC3)c2c1 [VILAZODONE HYDROCHLORIDE] this time 3.14

Same question, Cc1cccc([C@H](C)c2cnc[nH]2)c1C [DEXMEDETOMIDINE HYDROCHLORIDE] this time 1.60

Same question, `CCCCN1CCC(COC(=O)c2cc(Cl)c(N)c3c2OCCO3)CC1` this time 2.83

Same question, Cc1ccc2c(c1)c1c(n2CCc2ccc(C)nc2)CCN(C)C1 [LATREPIRDINE] this time 3.47

Same question, COc1cccc([C@@H](C)NCCCc2ccccc2Cl)c1 [TECALCET HYDROCHLORIDE] this time 3.20

Same question, `O=c1ccc2ccc(OCCCCN3CCN(c4cccc5sccc45)CC3)cc2[nH]1` this time 1.78

Same question, `NC[C@H](O)c1ccc(O)c(O)c1` this time 2.59

Same question, C[C@@H](NCCCc1cccc(C(F)(F)F)c1)c1cccc2ccccc12 [CINACALCET HYDROCHLORIDE] this time 3.20

Same question, `Cc1c(P(=S)(c2ccccc2)c2ccccc2)n2ccccc2[n+]1C/C=C/c1ccccc1` this time 2.35

Same question, CN(C)C(=O)N[C@H]1CC[C@H](CCN2CCN(c3cccc(Cl)c3Cl)CC2)CC1 [CARIPRAZINE HYDROCHLORIDE] this time 2.37

Same question, `Cc1nc2sccn2c(=O)c1CCN1CCC(=C(c2ccc(F)cc2)c2ccc(F)cc2)CC1` this time 2.57

Same question, CCc1nn(CCCN2CCN(c3cccc(Cl)c3)CC2)c(=O)n1CCOc1ccccc1 [NEFAZODONE HYDROCHLORIDE] this time 2.56

Same question, `CNc1nc(NCc2ccc(NS(C)(=O)=O)cc2Cl)cc(-c2ccccn2)n1` this time 3.24

Same question, `COc1ccc2cc(S(=O)(=O)N[C@H](CC(=O)N[C@H](Cc3ccc(CN4[C@H](C)CCC[C@@H]4C)cc3)C(=O)N(C)C(C)C)c3ccc4c(c3)OCO4)ccc2c1` this time 3.10

---

systemName: 5-hydroxytryptamine receptor 2C (Homo sapiens, UniProt P28335)
Sequence (P28335 whole entry): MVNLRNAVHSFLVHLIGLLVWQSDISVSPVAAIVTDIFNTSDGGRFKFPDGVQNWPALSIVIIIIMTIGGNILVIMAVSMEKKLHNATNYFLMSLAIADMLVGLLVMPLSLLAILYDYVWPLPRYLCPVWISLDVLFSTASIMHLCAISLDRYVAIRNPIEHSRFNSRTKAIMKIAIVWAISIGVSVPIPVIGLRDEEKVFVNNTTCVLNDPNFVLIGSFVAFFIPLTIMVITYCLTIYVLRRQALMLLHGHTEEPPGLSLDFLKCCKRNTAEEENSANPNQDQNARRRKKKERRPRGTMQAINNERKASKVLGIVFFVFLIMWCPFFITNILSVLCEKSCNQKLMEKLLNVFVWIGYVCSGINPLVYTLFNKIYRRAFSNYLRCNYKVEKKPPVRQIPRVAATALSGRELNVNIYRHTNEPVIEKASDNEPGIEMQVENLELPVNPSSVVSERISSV
pKi: −log10 of the molar value. Counter-ions that a name gives are not always drawn.
Response key: label 1 means pKi >= 6; label 0 means pKi < 6.

Is pKi for `CCc1cc2c(cc1CC)CC(NC[C@H](O)c1ccc(O)c3[nH]c(=O)ccc13)C2` at or above 6? label 0

Same question, CCCCCNC(=N)N/N=C/c1c[nH]c2ccc(OC)cc12 [TEGASEROD MALEATE] this time label 1

Same question, `CCCCCCCCCCCCCCCCOC[C@H](COP(=O)([O-])OCC[N+](C)(C)C)OC(C)=O` this time label 0

Same question, `CCCCN1CCC(COC(=O)c2cc(Cl)c(N)c3c2OCCO3)CC1` this time label 1

---

Where a name gives a salt, the structure may show the parent alone.
The listing below reports Ki for compounds tested on UniProt Q01959.
Sequence (Q01959 whole entry): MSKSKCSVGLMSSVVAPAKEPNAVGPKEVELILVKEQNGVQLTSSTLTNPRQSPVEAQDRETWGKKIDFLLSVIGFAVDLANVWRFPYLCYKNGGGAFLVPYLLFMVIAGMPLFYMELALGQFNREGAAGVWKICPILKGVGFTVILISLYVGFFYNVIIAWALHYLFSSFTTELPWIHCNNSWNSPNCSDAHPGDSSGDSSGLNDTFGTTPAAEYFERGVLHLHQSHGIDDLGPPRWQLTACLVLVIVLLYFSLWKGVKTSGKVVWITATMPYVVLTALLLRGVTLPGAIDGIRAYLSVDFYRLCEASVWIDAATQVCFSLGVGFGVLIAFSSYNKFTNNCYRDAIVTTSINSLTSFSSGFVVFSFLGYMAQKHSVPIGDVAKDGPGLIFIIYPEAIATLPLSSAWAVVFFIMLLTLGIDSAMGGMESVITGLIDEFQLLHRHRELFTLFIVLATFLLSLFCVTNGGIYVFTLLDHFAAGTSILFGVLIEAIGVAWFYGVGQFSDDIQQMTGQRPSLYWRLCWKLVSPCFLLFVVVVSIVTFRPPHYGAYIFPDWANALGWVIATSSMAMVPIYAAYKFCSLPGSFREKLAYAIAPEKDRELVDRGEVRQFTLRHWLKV
State just the number; it will be interpreted in nM.

# query: Ki | item CN(C)C(=O)C(CCN1CCC(O)(c2ccc(Cl)cc2)CC1)(c1ccccc1)c1ccccc1 [LOPERAMIDE HYDROCHLORIDE] | system: UniProt Q01959 1410

Same question, `CN1CCN(c2ccc(Nc3c4ccccc4nc4ccccc34)cc2)CC1` this time 451

Same question, `Cc1cc([C@@H](C)Nc2cccc(-c3cc(C)c(C(=O)N[C@@H](C)C(=O)O)c(C)c3)c2)ccc1Cl` this time 402

Same question, CCc1cc2c(cc1CC)CC(NC[C@H](O)c1ccc(O)c3[nH]c(=O)ccc13)C2 [INDACATEROL] this time 75

Same question, Cc1nc(-c2ccc(-c3ccc(C(=O)N4CCc5cc6c(cc54)C4(CCN(C)CC4)CO6)cc3)c(C)c2)no1 [SB-224289] this time 1180

Same question, `O=C(Cc1ccc(Cl)c(Cl)c1)N1CCCC[C@H]1CN1CCCC1` this time 4860

Same question, CC1=C2C[C@H]3[C@@H](CC=C4C[C@@H](O)CC[C@@]43C)[C@@H]2CC[C@]12O[C@@H]1C[C@H](C)CN[C@H]1[C@H]2C [CYCLOPAMINE] this time 3420

Same question, `Cc1nc(-c2ccc(C(F)(F)F)cc2)sc1COc1ccc([C@H](CC(=O)O)c2ccon2)cc1` this time 4490

Same question, `OC1(c2ccc(Cl)cc2)CCN(Cc2c[nH]c3ccccc23)CC1` this time 1400

Same question, `C[C@H](NC[C@H](O)CP(=O)(O)CC1CCCCC1)c1ccc(Cl)c(Cl)c1` this time 520

Same question, `FC(F)(F)c1c(N2CCC(c3ccccc3)CC2)ccn2c(CC3CC3)nnc12` this time 4310

Same question, `NCCc1cn(S(=O)(=O)c2c(Cl)nc3sccn23)c2ccccc12` this time 1720

Same question, N#Cc1c(N)nc(SCc2csc(-c3ccc(Cl)cc3)n2)c(C#N)c1-c1ccc(OCCO)cc1 [CAPADENOSON] this time 3190

Same question, CCOC(=O)c1c(C)[nH]c2ccc3c(c12)CN1CCc2cc(OC)ccc2C1O3 (configuration not stated) this time 673

Same question, N#Cc1ccc2[nH]cc(CCCCN3CCN(c4ccc5oc(C(N)=O)cc5c4)CC3)c2c1 [VILAZODONE HYDROCHLORIDE] this time 21.8

Same question, `O=C(O)c1cc(-c2ccc(C3CCNCC3)cc2)c2ccc(-c3ccc(C(F)(F)F)cc3)cc2c1` this time 1220

---

For each of the compounds below, state its pKi.
systemName: Muscarinic acetylcholine receptor M5 (Homo sapiens)
Sequence (P08912 whole entry): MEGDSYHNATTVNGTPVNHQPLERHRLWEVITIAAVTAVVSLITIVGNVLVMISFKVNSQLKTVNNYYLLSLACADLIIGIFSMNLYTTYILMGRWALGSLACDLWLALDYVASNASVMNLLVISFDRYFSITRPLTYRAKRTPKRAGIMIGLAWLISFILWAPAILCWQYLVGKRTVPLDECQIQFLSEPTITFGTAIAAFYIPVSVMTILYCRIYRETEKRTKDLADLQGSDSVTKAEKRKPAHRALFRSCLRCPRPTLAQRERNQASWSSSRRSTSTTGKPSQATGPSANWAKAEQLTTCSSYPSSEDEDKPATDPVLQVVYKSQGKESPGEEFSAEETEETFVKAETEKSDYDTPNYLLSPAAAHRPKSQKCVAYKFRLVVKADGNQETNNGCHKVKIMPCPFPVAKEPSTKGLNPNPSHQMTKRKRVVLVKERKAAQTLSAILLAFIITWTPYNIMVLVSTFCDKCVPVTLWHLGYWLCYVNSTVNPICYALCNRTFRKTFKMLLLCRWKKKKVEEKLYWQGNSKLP
Where a name gives a salt, the structure may show the parent alone.
In plain terms, pKi is the concentration in mol/L turned into minus its base-10 logarithm.

Fill in the blank: the reported pKi of CN1CCC(=C2c3ccccc3CC(=O)c3sccc32)CC1 [KETOTIFEN FUMARATE] is ____. 7.01

Same question, `Clc1cccc(COc2cncc(N3CCNCC3)n2)c1` this time 6.53

Same question, `Cc1cn2cc(CC(=O)N3CCC4(CC3)CN(Cc3ccc(-n5nccn5)cc3Cl)C4)nc2s1` this time 6.18

Same question, COc1ccccc1CN[C@H]1C2CCN(CC2)[C@H]1C(c1ccccc1)c1ccccc1 [CP-96345] this time 5.31

Same question, CN(C(=O)Cc1ccc(Cl)c(Cl)c1)C(CN1CCCC1)c1cccc(OCC(=O)O)c1 (stereo not given) this time 5.23
